Where these numbers come from: ChEMBL document CHEMBL4689842

system: Fibroblast; assay: Incucyte cell viability with human fibroblast; format: toxicity, cell-based; details: 6 h, 10 µM, compound concentration 10 uM, replicate number 1, timepoint 6 hours; note: filed as whole numbers so only -1 and 0 and 1 occur
Could you please report measured Growth Rate for the items listed next?
Numbers only.

MOLECULE	Growth Rate
O=C(O)[C@@H]1[C@@H](Cn2nnc3ccccc3c2=O)CC[C@H]1C(=O)c1ccc(OCCC2CCOCC2)cc1	0
COc1cc2nccc(Oc3ccc(NC(=O)Nc4cc(C)on4)c(Cl)c3)c2cc1OC.O	0
CC(=O)Nc1c(C(C)=O)c(=O)n(C)c2nc(-c3ccc(Cl)cc3Cl)c(-c3ccc(Cl)cc3)cc12	1
CN(C)C(=O)N[C@H]1CC[C@H](CCN2CCN(c3cccc(Cl)c3Cl)CC2)CC1.Cl [CARIPRAZINE HYDROCHLORIDE]	0
CCC(=O)N1CCOc2c(cc(-c3ccc(OC)c(OC)c3)cc2OC[C@H]2CCCN(C)C2)C1	0

Quick request: Growth Rate for each listed item, please.
1. CNCc1ccccc1-c1csc([C@H](C)Nc2nc(C)nc3cc(OC)c(OC)cc23)c1
2. CN(C)S(=O)(=O)c1ccc(NC(=S)N2CCC(C(O)(c3ccccc3)c3ccccc3)CC2)cc1

Found:
[0, 0]

Quick request: Growth Rate for each listed item, please.
1. COc1cc(-c2cn([C@H]3CCc4c(F)cccc4N(CC(F)(F)F)C3=O)nn2)ccc1-n1cnc(C)c1
2. Cc1sc2c(c1C)C(c1ccc(Cl)cc1)=N[C@@H](CC(=O)OC(C)(C)C)c1nnc(C)n1-2
3. CN1CCC[C@@H]1CCO[C@](C)(c1ccccc1)c1ccc(Cl)cc1.O=C(O)/C=C/C(=O)O [CLEMASTINE FUMARATE]
4. O=c1nc(-c2ccccn2)sc2ccccc12
5. CN(C)C(=O)/C(C#N)=C/c1ccc(-c2nc3cnc4[nH]ccc4c3n2C2CCCCC2)o1
6. CC(=O)C1=C(C)N(c2cccc(C(F)(F)F)c2)C(=O)N[C@H]1c1ccc(C#N)nc1

Found:
1. 0
2. 0
3. 1
4. 0
5. 1
6. 0

Quick request: Growth Rate for each listed item, please.
1. C[C@@]1(C(=O)Nc2ccc(F)nc2)CCCN1c1nc(Nc2cc(C3CC3)n[nH]2)c2cccn2n1
2. Br.Br.N=C(N)SCCc1c[nH]cn1
3. Cc1c(C(=O)NC2CCCCC2)sc2nc3ccc(N)cc3n12.Cl
4. NC(=O)Nc1cc(-c2cccc(F)c2)sc1C(=O)N[C@H]1CCCNC1

Found:
1. 0
2. 0
3. 0
4. 1
